- ASSAY PROCEDURE: Stability of compound 13 prodrugs in human serum
- Assay type: in vitro ADME
- CONDITION PARAMETERS: 37° C., prodrug 50.0 μg/mL, t = 10 min
Is % of initial area ratio at t = 10 min at least 30%? Then yes. If not, no.

Cc1oc(=O)oc1COC(=O)c1c(F)ccc2c1OB(O)[C@@H]1C[C@H]21 = no
CC(=O)OCC(=O)OCOC(=O)c1c(F)ccc2c1OB(O)[C@@H]1C[C@H]21 = no

Exam item: Textbook exercise: given the entry `O=C(OCOC(=O)c1c(F)ccc2c1OB(O)[C@@H]1C[C@H]21)OC1COC1` , state whether its % of initial area ratio at t = 10 min is greater than or equal to 30%.
Marked response: yes

Exam item: Same question for `O=C(OCOC(=O)C1CCOCC1)c1c(F)ccc2c1OB(O)[C@@H]1C[C@H]21` please.
Marked response: yes

Exam item: Also, `COCC(=O)OCOC(=O)c1c(F)ccc2c1OB(O)[C@@H]1C[C@H]21` please.
Marked response: yes

----------
- MEASURED TARGET: Pa-AmpC (Pseudomonas aeruginosa)
- Sequence (P24735 27-397): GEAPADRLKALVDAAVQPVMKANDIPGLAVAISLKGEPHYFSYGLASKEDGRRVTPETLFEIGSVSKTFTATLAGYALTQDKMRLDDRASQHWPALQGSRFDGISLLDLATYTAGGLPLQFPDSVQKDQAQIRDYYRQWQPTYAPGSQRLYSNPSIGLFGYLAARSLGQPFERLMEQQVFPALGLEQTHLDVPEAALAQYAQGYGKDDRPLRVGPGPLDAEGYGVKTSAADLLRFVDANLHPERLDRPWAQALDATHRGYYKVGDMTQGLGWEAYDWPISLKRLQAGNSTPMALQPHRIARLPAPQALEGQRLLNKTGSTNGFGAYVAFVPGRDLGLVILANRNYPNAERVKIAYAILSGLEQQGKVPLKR
- ASSAY PROCEDURE: biochemical
- CONDITION PARAMETERS: nitrocefin reporter substrate; 10 min preincubation at room temperature; read-out: Ki (Pa-AmpC, NCF)
pKi: −log10 of the molar value.
MEASUREMENT KIND: pKi

Below are worked cases with known answers.
COc1ccc2c(c1C(=O)O)OB(O)[C@@H]1COC[C@H]21 = 6.00 to 7.00
O=C(O)c1c(F)ccc2c1OB(O)[C@H]1C[C@@H]21 = 6.00 to 7.00
O=C(O)c1c(F)ccc2c1OB(O)C1CC21 (stereo not shown) = > 7.00
O=C(O)c1cccc2c1OB(O)[C@H]1C[C@@H]21 = 6.00 to 7.00
O=C(O)c1c(F)ccc2c1OB(O)[C@@H]1C[C@H]21 = > 7.00
COc1ccc2c(c1C(=O)O)OB(O)[C@H]1C[C@@H]21 = > 7.00

Next, consider the following compound.
Exam item: So what's the measured pKi for this one? `COc1ccc2c(c1C(=O)O)OB(O)[C@@H]1C[C@H]21`
Marked response: > 7.00

----------
Catalogue of pKi values
- MEASURED TARGET: KPC-2 (Klebsiella pneumoniae)
- Sequence (Q9F663 25-293 limits assumed): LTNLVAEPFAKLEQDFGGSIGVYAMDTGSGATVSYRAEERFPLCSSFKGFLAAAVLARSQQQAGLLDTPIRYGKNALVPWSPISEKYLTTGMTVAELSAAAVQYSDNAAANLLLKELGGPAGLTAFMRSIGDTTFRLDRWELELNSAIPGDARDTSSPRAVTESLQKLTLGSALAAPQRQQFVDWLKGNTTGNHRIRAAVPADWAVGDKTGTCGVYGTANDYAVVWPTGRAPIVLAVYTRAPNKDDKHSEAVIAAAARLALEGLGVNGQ
- ASSAY PROCEDURE: Inhibition of nitrocefin cleavage by purified KPC-2
- Assay type: biochemical
- CONDITION PARAMETERS: nitrocefin reporter substrate; 10 min preincubation at room temperature; read-out: Ki (KPC-2, NCF)
pKi: −log10 of the molar value.

// below: answered compounds
O=C(O)c1c(F)c(F)cc2c1OB(O)C1CC21 (centres unmarked) [Compound 19] = > 7.00
O=C(O)[C@H]1/C(=C/CO)O[C@@H]2CC(=O)N21 [Clavulanic Acid, reference compound] = < 6.00
COc1ccc2c(c1C(=O)O)OB(O)C(F)=C2 [Compound 8] = > 7.00

Continue with the next compound.
Exam item: What value of pKi has been reported for the following compound? COc1ccc2c(c1C(=O)O)OB(O)C1=C2COC1 [Compound 24]
Marked response: > 7.00

----------
- MEASURED TARGET: OXA-48 (Klebsiella pneumoniae)
- Sequence (Q6XEC0 23-265, looked up): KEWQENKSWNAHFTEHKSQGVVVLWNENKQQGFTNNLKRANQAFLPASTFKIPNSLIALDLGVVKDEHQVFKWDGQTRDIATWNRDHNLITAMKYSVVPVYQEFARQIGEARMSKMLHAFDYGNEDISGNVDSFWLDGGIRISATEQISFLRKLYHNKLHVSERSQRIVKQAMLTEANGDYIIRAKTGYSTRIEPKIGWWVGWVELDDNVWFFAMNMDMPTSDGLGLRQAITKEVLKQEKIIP
- ASSAY PROCEDURE: Inhibition of nitrocefin cleavage by purified OXA-48
- CONDITION PARAMETERS: nitrocefin reporter substrate; 10 min preincubation at room temperature; read-out: Ki (OXA-48, NCF)
pKi: −log10 of the molar value.
As shown below, each of these molecules has a reported pKi value.

O=C(O)c1cccc2c1OB(O)[C@H]1C[C@@H]21 [Compound 18] = > 7.00
COc1ccc2c(c1C(=O)O)OB(O)[C@@H]1C[C@H]21 [Compound 3] = > 7.00
O=C(O)c1c(F)ccc2c1OB(O)CC21CC1 [Compound 15] = > 7.00
COc1ccc2c(c1C(=O)O)OB(O)C1C2[C@H]2C=C[C@@H]1C2 (stereo partly drawn) [Compound 6] = > 7.00

Exam item: What value of pKi has been reported for the following molecule? O=C(O)c1nccc2c1OB(O)[C@@H]1C[C@H]21 [Compound 21]
Marked response: > 7.00

Exam item: O=C(O)c1cccc2c1OB(O)CC21CC1 [Compound 14] , same question.
Marked response: > 7.00
